Target under test: NPT1 (Homo sapiens, UniProt Q14916)
Sequence (Q14916 whole entry): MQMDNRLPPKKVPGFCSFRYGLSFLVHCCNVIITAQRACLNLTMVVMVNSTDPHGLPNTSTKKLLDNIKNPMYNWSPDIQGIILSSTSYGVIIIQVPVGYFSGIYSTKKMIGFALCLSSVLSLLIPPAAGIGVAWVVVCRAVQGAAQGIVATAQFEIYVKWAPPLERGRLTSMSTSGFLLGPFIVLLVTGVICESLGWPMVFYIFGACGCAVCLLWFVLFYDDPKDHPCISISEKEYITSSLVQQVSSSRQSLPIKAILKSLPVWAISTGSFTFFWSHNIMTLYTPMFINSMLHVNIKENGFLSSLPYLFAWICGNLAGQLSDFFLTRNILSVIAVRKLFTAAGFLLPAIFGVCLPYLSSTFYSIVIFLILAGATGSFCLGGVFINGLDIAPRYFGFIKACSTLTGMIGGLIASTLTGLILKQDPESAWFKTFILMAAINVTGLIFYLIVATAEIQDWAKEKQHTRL
Assay comment: [14C]-urate uptake by NPT1-expressing Xenopus oocytes
Format: cell-based
Method: For uptake experiments, oocytes were washed four times with ND96 medium (pH 7.4) without pyruvate and gentamycin. The uptake of [^14C]‐urate by NPT1‐expressing oocytes was performed in ND96 medium (pH 7.4) at ~25°C for 1 h. […] Data are mean ± S.E. with n = 12–15.
pIC50: −log10 of the molar value.
Endpoint name: pIC50

Returns the measured pIC50 for the input molecule. Input: CCc1oc2ccccc2c1C(=O)c1cc(Br)c(O)c(Br)c1
~4.77

---

Target under test: UniProtKB Q1EHB4
Sequence (Q1EHB4 whole entry): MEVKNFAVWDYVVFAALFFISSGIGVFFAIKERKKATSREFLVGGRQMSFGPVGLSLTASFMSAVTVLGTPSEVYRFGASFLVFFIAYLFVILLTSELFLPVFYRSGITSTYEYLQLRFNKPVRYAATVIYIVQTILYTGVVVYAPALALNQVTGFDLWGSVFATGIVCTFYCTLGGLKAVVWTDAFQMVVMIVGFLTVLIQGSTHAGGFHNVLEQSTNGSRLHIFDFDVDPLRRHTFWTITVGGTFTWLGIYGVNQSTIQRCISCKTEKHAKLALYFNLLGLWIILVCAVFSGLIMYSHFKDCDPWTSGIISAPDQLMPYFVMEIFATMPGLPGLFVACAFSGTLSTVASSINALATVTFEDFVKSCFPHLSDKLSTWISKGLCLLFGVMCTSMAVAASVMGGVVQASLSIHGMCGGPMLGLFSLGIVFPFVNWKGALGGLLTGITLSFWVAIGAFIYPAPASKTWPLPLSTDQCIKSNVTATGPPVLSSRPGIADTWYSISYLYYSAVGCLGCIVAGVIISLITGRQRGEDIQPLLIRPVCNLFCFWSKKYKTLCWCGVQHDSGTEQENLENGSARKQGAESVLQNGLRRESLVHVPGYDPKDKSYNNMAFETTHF
Assay comment: [14C]-nicotinate uptake by SMCT2-expressing Xenopus oocytes
Condition set: data not shown; read-out: IC50, SMCT2-mediated [14C]-nicotinate uptake
pIC50: −log10 of the molar value.
Endpoint name: pIC50

State the recorded pIC50 for this entry: CCc1oc2ccccc2c1C(=O)c1cc(Br)c(O)c(Br)c1
~4.21

---

List of IC50 values.
Target under test: GLUT9a (Homo sapiens, UniProt Q9NRM0)
Sequence (Q9NRM0 whole entry): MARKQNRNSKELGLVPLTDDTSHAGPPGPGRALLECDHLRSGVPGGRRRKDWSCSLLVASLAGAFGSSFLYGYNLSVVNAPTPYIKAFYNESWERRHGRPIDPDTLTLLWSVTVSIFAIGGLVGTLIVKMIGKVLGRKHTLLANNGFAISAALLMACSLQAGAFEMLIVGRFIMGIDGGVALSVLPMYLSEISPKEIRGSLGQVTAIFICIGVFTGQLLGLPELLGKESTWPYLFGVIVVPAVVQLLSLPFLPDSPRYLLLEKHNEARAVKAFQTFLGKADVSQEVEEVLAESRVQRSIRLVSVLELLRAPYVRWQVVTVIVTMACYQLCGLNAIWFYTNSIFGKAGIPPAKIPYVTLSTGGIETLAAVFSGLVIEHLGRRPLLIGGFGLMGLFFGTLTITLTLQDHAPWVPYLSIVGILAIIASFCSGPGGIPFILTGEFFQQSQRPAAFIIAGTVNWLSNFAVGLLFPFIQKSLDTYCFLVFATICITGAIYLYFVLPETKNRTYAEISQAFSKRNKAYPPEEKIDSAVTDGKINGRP
Assay comment: [14C]-urate uptake by GLUT9a-expressing Xenopus oocytes
Format: cell-based
Condition set: 40 μmol/L urate, NaCl medium; read-out: IC50, GLUT9a-mediated [14C]-urate uptake

                        structure_notation  assay_result
0  CCc1oc2ccccc2c1C(=O)c1cc(Br)c(O)c(Br)c1      ~14.2 µM

Consider the compound shown here: COc1ccc(C=CC(=O)Nc2ccccc2C(=O)O)cc1OC What is its recorded IC50?
~15.6 µM

---

Target under test: SMCT1 (Homo sapiens, UniProt Q8N695)
Sequence (Q8N695 whole entry): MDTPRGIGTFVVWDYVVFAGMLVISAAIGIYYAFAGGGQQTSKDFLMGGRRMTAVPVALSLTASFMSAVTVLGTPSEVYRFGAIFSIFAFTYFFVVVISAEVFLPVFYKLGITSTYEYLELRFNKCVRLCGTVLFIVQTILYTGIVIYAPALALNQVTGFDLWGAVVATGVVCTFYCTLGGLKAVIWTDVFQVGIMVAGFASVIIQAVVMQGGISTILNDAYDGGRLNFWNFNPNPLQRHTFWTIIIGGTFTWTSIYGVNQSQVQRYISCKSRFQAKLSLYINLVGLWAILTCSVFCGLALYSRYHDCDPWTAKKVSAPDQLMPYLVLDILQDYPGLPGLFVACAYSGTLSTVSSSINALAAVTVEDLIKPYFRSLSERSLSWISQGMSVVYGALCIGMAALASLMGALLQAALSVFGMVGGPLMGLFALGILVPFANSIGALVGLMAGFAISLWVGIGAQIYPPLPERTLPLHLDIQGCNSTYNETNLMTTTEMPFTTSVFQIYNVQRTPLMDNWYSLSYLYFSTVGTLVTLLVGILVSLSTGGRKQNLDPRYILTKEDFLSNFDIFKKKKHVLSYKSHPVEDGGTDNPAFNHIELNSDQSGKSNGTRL
Assay comment: [14C]-nicotinate uptake by SMCT1-expressing Xenopus oocytes
Condition set: data not shown; read-out: IC50, SMCT1-mediated [14C]-nicotinate uptake
Endpoint name: IC50

Provide the documented IC50 with SMCT1 (Homo sapiens, UniProt Q8N695) as the system for CCc1oc2ccccc2c1C(=O)c1cc(Br)c(O)c(Br)c1
~49.6 µM

---

Target under test: OAT4 (Homo sapiens, UniProt Q9NSA0)
Sequence (Q9NSA0 1-550): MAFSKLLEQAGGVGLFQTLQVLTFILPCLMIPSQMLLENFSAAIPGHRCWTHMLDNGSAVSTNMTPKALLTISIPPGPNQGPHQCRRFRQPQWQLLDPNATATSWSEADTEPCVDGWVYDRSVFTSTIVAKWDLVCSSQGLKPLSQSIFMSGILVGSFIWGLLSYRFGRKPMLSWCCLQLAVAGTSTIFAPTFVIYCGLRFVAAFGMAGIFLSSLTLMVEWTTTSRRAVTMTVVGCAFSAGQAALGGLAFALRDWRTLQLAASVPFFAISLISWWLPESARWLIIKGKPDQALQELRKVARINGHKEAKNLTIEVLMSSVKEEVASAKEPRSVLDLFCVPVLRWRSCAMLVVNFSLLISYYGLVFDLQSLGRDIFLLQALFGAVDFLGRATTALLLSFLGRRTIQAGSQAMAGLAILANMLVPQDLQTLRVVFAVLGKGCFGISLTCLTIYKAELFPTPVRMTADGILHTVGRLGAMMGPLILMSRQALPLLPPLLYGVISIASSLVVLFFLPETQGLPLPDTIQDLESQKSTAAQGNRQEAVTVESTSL
Assay comment: [14C]-urate uptake by OAT4-expressing Xenopus oocytes
Condition set: data not shown
pIC50: −log10 of the molar value.
Endpoint name: pIC50

Which pIC50 is reported for this compound? COc1ccc(C=CC(=O)Nc2ccccc2C(=O)O)cc1OC
~4.66

---

Target under test: URAT1 (Homo sapiens, UniProt Q96S37)
Sequence (Q96S37 1-553): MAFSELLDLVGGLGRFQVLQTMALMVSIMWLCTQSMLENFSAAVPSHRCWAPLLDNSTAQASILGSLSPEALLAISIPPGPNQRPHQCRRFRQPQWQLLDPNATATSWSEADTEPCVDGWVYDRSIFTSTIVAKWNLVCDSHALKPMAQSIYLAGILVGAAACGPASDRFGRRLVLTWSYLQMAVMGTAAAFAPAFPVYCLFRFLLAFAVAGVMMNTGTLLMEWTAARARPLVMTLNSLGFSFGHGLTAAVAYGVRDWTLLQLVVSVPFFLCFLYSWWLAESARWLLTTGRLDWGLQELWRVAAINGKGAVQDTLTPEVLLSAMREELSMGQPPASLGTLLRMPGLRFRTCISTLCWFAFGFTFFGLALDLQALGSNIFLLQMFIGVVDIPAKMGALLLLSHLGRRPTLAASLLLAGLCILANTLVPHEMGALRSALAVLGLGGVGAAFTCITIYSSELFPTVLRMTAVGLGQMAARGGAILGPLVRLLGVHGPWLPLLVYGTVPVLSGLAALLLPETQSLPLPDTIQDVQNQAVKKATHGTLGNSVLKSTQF
Assay comment: [14C]-urate uptake by URAT1-expressing Xenopus oocytes
Condition set: Eadie-Hofstee analysis; read-out: inhibition constant (Ki) for URAT1-mediated urate uptake
Endpoint name: Ki (µM)
Kindly answer with a numeric value in µM, unit omitted.

Consider the molecule COc1ccc(C=CC(=O)Nc2ccccc2C(=O)O)cc1OC and give its measured Ki.
21.3

---

Target under test: OAT10 (Homo sapiens, UniProt Q9Y226)
Sequence (Q9Y226 whole entry): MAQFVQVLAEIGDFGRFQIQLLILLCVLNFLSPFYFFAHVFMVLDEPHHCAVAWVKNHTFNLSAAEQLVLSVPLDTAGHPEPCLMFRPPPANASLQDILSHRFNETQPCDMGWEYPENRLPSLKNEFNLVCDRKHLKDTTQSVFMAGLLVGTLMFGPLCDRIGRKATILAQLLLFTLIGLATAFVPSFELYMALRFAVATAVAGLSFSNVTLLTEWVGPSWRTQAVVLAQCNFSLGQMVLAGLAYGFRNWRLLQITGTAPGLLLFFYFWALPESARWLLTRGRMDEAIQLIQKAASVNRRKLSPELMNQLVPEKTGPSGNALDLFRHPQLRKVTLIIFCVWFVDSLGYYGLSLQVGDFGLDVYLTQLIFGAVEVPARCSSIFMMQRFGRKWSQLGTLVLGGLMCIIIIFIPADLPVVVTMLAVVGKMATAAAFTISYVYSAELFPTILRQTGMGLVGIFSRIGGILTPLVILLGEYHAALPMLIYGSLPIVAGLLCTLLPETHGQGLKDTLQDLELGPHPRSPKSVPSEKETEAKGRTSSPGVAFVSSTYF
Assay comment: [14C]-urate uptake by OAT10-expressing Xenopus oocytes
Type: cell-based
Condition set: data not shown; read-out: IC50, [14C]-urate uptake by OAT10
Endpoint name: IC50

Could you tell me which IC50 is on file for COc1ccc(C=CC(=O)Nc2ccccc2C(=O)O)cc1OC ?
~31 µM

---

Target under test: ABCG2 (Homo sapiens, UniProt Q9UNQ0)
Sequence (Q9UNQ0 whole entry): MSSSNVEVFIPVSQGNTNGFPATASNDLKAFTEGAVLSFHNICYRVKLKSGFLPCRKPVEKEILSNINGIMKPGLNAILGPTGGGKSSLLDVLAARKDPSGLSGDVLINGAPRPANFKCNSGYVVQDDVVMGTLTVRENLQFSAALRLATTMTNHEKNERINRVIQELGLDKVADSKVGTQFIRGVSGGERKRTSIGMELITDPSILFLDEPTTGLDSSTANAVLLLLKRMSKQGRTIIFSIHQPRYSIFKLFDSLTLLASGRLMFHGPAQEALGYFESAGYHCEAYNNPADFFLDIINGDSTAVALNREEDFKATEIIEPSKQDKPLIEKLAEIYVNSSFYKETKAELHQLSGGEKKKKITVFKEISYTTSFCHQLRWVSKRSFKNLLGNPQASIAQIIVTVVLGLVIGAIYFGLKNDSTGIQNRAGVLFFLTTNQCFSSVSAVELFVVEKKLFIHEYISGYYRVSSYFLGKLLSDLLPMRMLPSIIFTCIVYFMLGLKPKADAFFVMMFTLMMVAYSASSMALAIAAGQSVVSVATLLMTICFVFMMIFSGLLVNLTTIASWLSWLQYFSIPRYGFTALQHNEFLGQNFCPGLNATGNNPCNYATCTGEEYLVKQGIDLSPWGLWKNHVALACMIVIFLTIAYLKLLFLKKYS
Assay comment: [14C]-urate efflux from ABCG2-expressing Xenopus oocytes
Condition set: human, Xenopus laevis oocytes expressing ABCG2, pH 7.4, probe [14C]-urate
Endpoint name: inhibition at 1 h, 100 μmol/L

For CCc1oc2ccccc2c1C(=O)c1cc(Br)c(O)c(Br)c1 [benzbromarone] , what is its reported inhibition at 1 h, 100 μmol/L?
~48%

---

Target under test: GLUT9a (Homo sapiens, UniProt Q9NRM0)
Assay comment: [14C]-urate uptake by GLUT9a-expressing Xenopus oocytes
Condition set: Eadie-Hofstee analysis; read-out: inhibition constant (Ki) for GLUT9a-mediated urate uptake
Endpoint name: Ki (µM)
Response body: numeric value in µM, unit text excluded.

Which measured Ki value corresponds to COc1ccc(C=CC(=O)Nc2ccccc2C(=O)O)cc1OC [tranilast] ?
17.1

---

Target under test: OAT10 (Homo sapiens)
Assay comment: [14C]-urate uptake by OAT10-expressing Xenopus oocytes
Assay type: cell-based
pIC50: −log10 of the molar value.
Endpoint name: pIC50

May I ask what pIC50 has been recorded for CCc1oc2ccccc2c1C(=O)c1cc(Br)c(O)c(Br)c1 ?
~4.70

---

Target under test: URAT1 (Homo sapiens, UniProt Q96S37)
Sequence (Q96S37 1-553): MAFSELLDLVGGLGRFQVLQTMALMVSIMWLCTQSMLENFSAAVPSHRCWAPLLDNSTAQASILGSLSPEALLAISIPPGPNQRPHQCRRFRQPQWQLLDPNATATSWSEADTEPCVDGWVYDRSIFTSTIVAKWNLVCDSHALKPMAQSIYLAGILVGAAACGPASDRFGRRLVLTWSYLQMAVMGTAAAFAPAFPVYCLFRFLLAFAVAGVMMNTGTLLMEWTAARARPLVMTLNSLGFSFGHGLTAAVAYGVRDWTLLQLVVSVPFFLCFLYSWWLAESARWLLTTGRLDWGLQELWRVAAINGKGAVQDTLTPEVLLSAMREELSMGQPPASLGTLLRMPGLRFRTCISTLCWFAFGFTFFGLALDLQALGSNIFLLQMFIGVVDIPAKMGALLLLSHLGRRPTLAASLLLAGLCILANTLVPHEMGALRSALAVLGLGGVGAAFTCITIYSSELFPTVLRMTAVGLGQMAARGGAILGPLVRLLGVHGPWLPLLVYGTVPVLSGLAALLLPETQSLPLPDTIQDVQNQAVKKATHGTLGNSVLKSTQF
Assay comment: [14C]-urate uptake by URAT1-expressing Xenopus oocytes
Type: cell-based
Condition set: uptake in the absence of PZA or nicotinate preloading; 40 μmol/L urate; data not shown; read-out: IC50, basal URAT1-mediated [14C]-urate uptake
Endpoint name: IC50

Which IC50 is reported for this compound? COc1ccc(C=CC(=O)Nc2ccccc2C(=O)O)cc1OC
~20 µM

---

Target under test: OAT10 (Homo sapiens)
Assay comment: [14C]-nicotinate uptake by OAT10-expressing Xenopus oocytes
Format: cell-based
Condition set: without preloading; data not shown; read-out: IC50, OAT10-mediated [14C]-nicotinate uptake
Endpoint name: IC50

Quick one: IC50 of COc1ccc(C=CC(=O)Nc2ccccc2C(=O)O)cc1OC ?
~42 µM

---

// values below are reported pIC50
Target under test: OAT10 (Homo sapiens)
Assay comment: [14C]-nicotinate uptake by OAT10-expressing Xenopus oocytes
Assay type: cell-based
Condition set: PZA-preloaded oocytes; read-out: IC50, OAT10-mediated [14C]-nicotinate/PZA exchange
pIC50: −log10 of the molar value.

In [3]: df
Out[3]:
                        structure_notation  assay_result
0  CCc1oc2ccccc2c1C(=O)c1cc(Br)c(O)c(Br)c1         ~4.64

Now consider a different compound.
For the compound COc1ccc(C=CC(=O)Nc2ccccc2C(=O)O)cc1OC , what pIC50 is on record?
~4.37
